pIC50: −log10 of the molar value.
Compiled literature pIC50, tested on Histone deacetylase 11 (Homo sapiens, UniProt Q96DB2).
endpoint-label: pIC50

{"compound": "FC(F)c1nnc(-c2ccc(Cn3cc(-c4ccc5nc(Cl)[nH]c5c4)nn3)nc2)o1", "result": "< 4.52"}
{"compound": "Nc1nc2cc(-c3nnn(Cc4ccc(-c5nnc(C(F)F)o5)cn4)n3)ccc2o1", "result": "< 4.52"}
{"compound": "O=C(CCCCCCN(c1ccccn1)c1ccc2ccccc2n1)NO", "result": 6.95}
{"compound": "Fc1ccc(C(CC(F)(F)F)Nc2ncc(-c3nnc(C(F)F)o3)cn2)cc1 (centres unmarked)", "result": "< 4.52"}
{"compound": "O=C1NCc2ccc(-c3nnn(Cc4ccc(-c5nnc(C(F)F)o5)cn4)n3)cc21", "result": "< 4.52"}
{"compound": "FC(F)c1nnc(-c2ccc(Cn3cnc(-c4ccc(NC5=NCCN5)cc4)c3)nc2)o1", "result": "< 4.52"}
{"compound": "CCN(CC)S(=O)(=O)c1cccc(-c2nnc(Sc3ccc(C(=O)NO)cc3)n2C)c1", "result": 6.00}
{"compound": "O=S(=O)(NCC(Nc1ncc(-c2nnc(C(F)F)o2)cn1)c1ccc(F)cc1)C1CC1 (centres unmarked)", "result": "< 4.52"}
